target: MYT1 protein (Homo sapiens (Human)); assay: Test for binding to ATP binding site of MYT1 (Kinase Tracer 178 / Eu-Anti-GST antibody TR-FRET); settings: ATP binding site of MYT1, 30 minutes at room temperature
Sequence (Q99640 whole entry): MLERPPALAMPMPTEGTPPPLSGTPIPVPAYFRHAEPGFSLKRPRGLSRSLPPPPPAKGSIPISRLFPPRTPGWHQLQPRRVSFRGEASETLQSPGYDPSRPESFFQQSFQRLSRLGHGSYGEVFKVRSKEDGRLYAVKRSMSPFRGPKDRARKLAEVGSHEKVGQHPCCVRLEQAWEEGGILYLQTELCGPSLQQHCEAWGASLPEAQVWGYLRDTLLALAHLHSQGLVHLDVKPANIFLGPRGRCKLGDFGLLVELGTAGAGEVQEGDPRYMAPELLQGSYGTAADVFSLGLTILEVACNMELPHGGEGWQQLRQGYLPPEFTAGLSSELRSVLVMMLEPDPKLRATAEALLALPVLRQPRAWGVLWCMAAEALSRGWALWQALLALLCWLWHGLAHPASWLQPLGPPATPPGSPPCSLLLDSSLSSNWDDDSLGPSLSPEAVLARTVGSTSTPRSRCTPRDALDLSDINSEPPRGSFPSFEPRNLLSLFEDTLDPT
pIC50: −log10 of the molar value.
assay-metric: pIC50

Example entries and their recorded answers appear below.
INSERT INTO assay_data (compound, experimental_result) VALUES
  ('Nc1c(-c2ccc(F)c3[nH]ncc23)c2cc(I)c3ncccc3c2[nH]c1=O', 8.31),
  ('CC(F)(F)COc1cc2c(-c3ccc(F)c4[nH]ncc34)c(N)c(=O)[nH]c2c2cccnc12', 8.55);

P: Nc1c(-c2ccc(F)c3[nH]ncc23)c2cc(OC[C@@H]3CCCO3)c3ncccc3c2[nH]c1=O
Q: Nc1c(-c2ccc(F)c3[nH]ncc23)c2cc(O[C@H]3C[C@H](F)C3)c3nccnc3c2[nH]c1=O
// compare measured pIC50 between P and Q ; output the lower one Please reply using the label of the selected record.
P
(P: 8.41, Q: 9.04)

I: Nc1c(-c2ccc(F)c3[nH]ncc23)c2cc(OCC3CC3)c3ncccc3c2[nH]c1=O
II: Cc1cc(-c2c(N)c(=O)[nH]c3ccc(Cl)cc23)c2cn[nH]c2c1
// compare measured pIC50 between I and II ; output the lower one Please reply using the label of the selected record.
II
(II: 6.32, I: 8.85)

a: COc1cc2c(-c3ccc(F)c4[nH]ncc34)c(N)c(=O)[nH]c2c2cccnc12
b: C[C@@H](Oc1cc2c(-c3ccc(F)c4[nH]ncc34)c(N)c(=O)[nH]c2c2cccnc12)C(F)(F)F
a or b : whose pIC50 is greater? Please reply using the label of the selected record.
a
(a: 8.89, b: 8.36)
